- System: Cyclin D1 (Homo sapiens, UniProt P24385)
- Sequence (P24385 whole entry): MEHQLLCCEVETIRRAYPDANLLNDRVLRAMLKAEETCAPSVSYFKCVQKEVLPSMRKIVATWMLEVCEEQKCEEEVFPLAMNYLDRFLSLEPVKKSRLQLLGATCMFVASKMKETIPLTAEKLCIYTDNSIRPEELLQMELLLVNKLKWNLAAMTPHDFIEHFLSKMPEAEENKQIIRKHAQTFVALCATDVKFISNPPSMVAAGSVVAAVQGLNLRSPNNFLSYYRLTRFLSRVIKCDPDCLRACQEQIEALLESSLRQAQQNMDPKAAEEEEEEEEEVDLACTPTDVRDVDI
- Assay summary: Competitive Cyclin D1 binding assay (ELISA), immobilised biotinylated p21 (149-159)
- Condition description: immobilised p21 (149-159) peptide
Measure name: IC50

Worked set:
{"columns": ["Molecule", "Measure name", "Recorded result"],
 "data": [
  ["CC(C)C[C@H](NC(=O)[C@H](CC(=O)O)NC(=O)[C@H](CC(C)C)NC(=O)[C@H](CCCNC(=N)N)NC(=O)[C@H](CCCNC(=N)N)NC(=O)[C@H](CCCCN)NC(=O)[C@H](CO)NC(=O)[C@@H](N)Cc1c[nH]cn1)C(N)=O", "IC50", "> 200 µM"],
  ["CC(C)C[C@H](NC(=O)[C@H](CCCNC(=N)N)NC(=O)[C@H](CCCNC(=N)N)NC(=O)[C@H](CCCCN)NC(=O)[C@H](CO)NC(=O)[C@@H](N)Cc1c[nH]cn1)C(=O)N[C@@H](Cc1ccccc1)C(=O)NCC(N)=O", "IC50", "> 200 µM"],
  ["CC(C)C[C@H](NC(=O)[C@H](CC(=O)O)NC(=O)[C@H](CC(C)C)NC(=O)[C@H](CCCNC(=N)N)NC(=O)[C@H](CCCNC(=N)N)NC(=O)[C@H](CCCCN)NC(=O)[C@@H](NC(=O)[C@@H]1CCCN1)C(C)C)C(N)=O [reference compound]", "IC50", "> 100 µM"]
]}

Shifting focus to the molecule that follows.
Give IC50 for `CC[C@H](NC(=O)[C@H](C)NC(=O)[C@@H](N)CO)C(=O)N[C@@H](CCCNC(=N)N)C(=O)N[C@@H](CC(N)=O)C(=O)N[C@@H](CC(C)C)C(=O)N[C@@H](Cc1ccccc1)C(=O)NCC(N)=O`
> 200 µM
